Test: Acute toxicity in the mouse, Weil's method
Conditions: in vivo, ip, "ep" route, Weil's method (N = 5, K = 4)
Text: The acute toxicity of the compounds of general formula (I) has been studied in the mouse with the Weil method (Weil C. S., Biometr. J. 8, 249, 1952). The LD50 values of some compounds illustrated in Table I, indicate that the compounds are remarkably well tolerated. LD50, mg Kg^-1, ep in mouse of some thiocarnitines of general formula (I). Weil's method (N = 5, K = 4) Cl = hydrochloride
Where a name gives a salt, the structure may show the parent alone.
quantity-name: LD50
The reply should read as a number followed by its unit.

Qu. Query: LD50; subject: CCC(CC)C(=O)SC(CC(=O)O)C[N+](C)(C)C (stereo not shown)
Ans. 295 mg/kg

Qu. LD50 lookup needed for C[N+](C)(C)CC(S)CC(=O)O (stereo not shown) [Thiocarnitine, thiocarnitine hydrochloride] , thanks.
Ans. 150 mg/kg

Qu. // LD50 lookup, key: CC(O)CC(=O)SC(CC(=O)O)C[N+](C)(C)C (stereo not drawn) [S--hydroxybutyryl thiocarnitine Cl, S-beta hydroxybutyryl thiocarnitine]
Ans. 300 mg/kg

Qu. I am curious: what LD50 value has been reported for CC(=O)SC(CC(=O)O)C[N+](C)(C)C (stereo not shown) [S--acetyl thiocarnitine Cl, S-acetyl thiocarnitine hydrochloride] ?
Ans. 294 mg/kg
